target.of.assay: mGluR2 receptor (metabotropic glutamate receptor 2) (Homo sapiens)
Construct: expressed in transfected cells
assay.name: mGluR2 Potentiator Screen, FLIPR, EC10-EC20 glutamate challenge
Format: cell-based
test.parameters: mGluR2 potentiator screen, Table 7; read-out: EC50
Would you mind classing the entries by EC50? Ranges: Low: < 0.5 µM; Mid: ≥ 0.5 µM and < 2 µM; High: ≥ 2 µM

compound: CC1CC1COc1ccc(Cl)cc1C1CCN(Cc2nc3ccccc3n2C2CC2)CC1 (stereo not drawn)
target.of.assay: mGluR2 receptor (metabotropic glutamate receptor 2) (Homo sapiens)
group: High
--
compound: CC[C@H](C)COc1ccc(Cl)cc1C1CCN(Cc2nc3ccccc3n2CCF)CC1
target.of.assay: mGluR2 receptor (metabotropic glutamate receptor 2) (Homo sapiens)
group: Mid
--
compound: Cn1c(CN2CCC(c3cccc4ccc(C(N)=O)cc34)CC2)nc2c(Br)cccc21
target.of.assay: mGluR2 receptor (metabotropic glutamate receptor 2) (Homo sapiens)
group: High
--
compound: FCCn1c(CN2CCC(c3cc(Cl)ccc3OCC3CCCCO3)CC2)nc2ccccc21 (stereo not drawn)
target.of.assay: mGluR2 receptor (metabotropic glutamate receptor 2) (Homo sapiens)
group: Mid
--
compound: CCCCOc1ccc(Cl)cc1C1CCN(Cc2nc3ccccc3n2C2CC2)CC1
target.of.assay: mGluR2 receptor (metabotropic glutamate receptor 2) (Homo sapiens)
group: Mid
--
compound: Cn1c(CN2CCC(c3cc(Cl)ccc3OCC3CCCCO3)CC2)nc2ccccc21 (stereo not drawn)
target.of.assay: mGluR2 receptor (metabotropic glutamate receptor 2) (Homo sapiens)
group: Mid
--
compound: Cn1c(CN2CCC(c3ccccc3Cl)C2)nc2ccccc21 (stereo not drawn)
target.of.assay: mGluR2 receptor (metabotropic glutamate receptor 2) (Homo sapiens)
group: Low
--
compound: CCCOc1ccc(Cl)cc1C1CCN(Cc2nc3ccccc3n2CF)CC1
target.of.assay: mGluR2 receptor (metabotropic glutamate receptor 2) (Homo sapiens)
group: Low
--
compound: Cn1c(CN2CCC(c3ccc(C(F)(F)F)cc3)CC2)nc2ccccc21
target.of.assay: mGluR2 receptor (metabotropic glutamate receptor 2) (Homo sapiens)
group: Low
--
compound: Cn1c(CN2CCC(c3ccccc3)C2)nc2ccccc21 (stereo not drawn)
target.of.assay: mGluR2 receptor (metabotropic glutamate receptor 2) (Homo sapiens)
group: High
--
compound: CC[C@H](C)COc1ccc(Cl)cc1C1CCN(Cc2nc3ccccc3n2CF)CC1
target.of.assay: mGluR2 receptor (metabotropic glutamate receptor 2) (Homo sapiens)
group: High
--
compound: Clc1ccc(OCC2CCCO2)c(C2CCN(Cc3nc4ccccc4n3C3CC3)CC2)c1 (stereo not drawn)
target.of.assay: mGluR2 receptor (metabotropic glutamate receptor 2) (Homo sapiens)
group: High
--
compound: Cn1c(CN2CCC(c3cc(Cl)ccc3F)CC2)nc2ccccc21
target.of.assay: mGluR2 receptor (metabotropic glutamate receptor 2) (Homo sapiens)
group: Low
--
compound: CCCCOc1ccc(Cl)cc1C1CCN(Cc2nc3ccccc3n2CCOC)CC1
target.of.assay: mGluR2 receptor (metabotropic glutamate receptor 2) (Homo sapiens)
group: Low
--
compound: CCCOc1ccc(Cl)cc1C1CCN(Cc2nc3ccccc3n2CCOC)CC1
target.of.assay: mGluR2 receptor (metabotropic glutamate receptor 2) (Homo sapiens)
group: Low
--
compound: Cn1c(CN2CC[C@@H]3c4ccccc4CC[C@@H]3C2)nc2c(Br)cccc21
target.of.assay: mGluR2 receptor (metabotropic glutamate receptor 2) (Homo sapiens)
group: Mid
--
compound: Cn1c(CN2CCC(c3ccccc3F)CC2)nc2c(Br)cccc21
target.of.assay: mGluR2 receptor (metabotropic glutamate receptor 2) (Homo sapiens)
group: Mid

###

target.of.assay: mGluR2 receptor (metabotropic glutamate receptor 2) (Homo sapiens)
Construct: expressed in transfected cells
assay.name: mGluR2 Potentiator Screen, FLIPR, EC10-EC20 glutamate challenge
Format: cell-based
test.parameters: mGluR2 potentiator screen, Table 7; read-out: EC50
pEC50: −log10 of the molar value.
Quick reference for pEC50 among some compounds
assay.metric: pEC50

compound: CC1CC1COc1ccc(Cl)cc1C1CCN(Cc2nc3ccccc3n2CCF)CC1 (centres unmarked)
target.of.assay: mGluR2 receptor (metabotropic glutamate receptor 2) (Homo sapiens)
meas.value: 5.81

compound: Clc1ccc(OCC2CCC2)c(C2CCN(Cc3nc4ccccc4n3C3CC3)CC2)c1
target.of.assay: mGluR2 receptor (metabotropic glutamate receptor 2) (Homo sapiens)
meas.value: 5.65

compound: Cn1c(CN2CCC(c3cccc(C(F)(F)F)c3)C(O)C2)nc2ccccc21 (centres unmarked)
target.of.assay: mGluR2 receptor (metabotropic glutamate receptor 2) (Homo sapiens)
meas.value: 5.36

compound: COc1ccccc1C1CCN(Cc2nc3c(Br)cccc3n2C)CC1
target.of.assay: mGluR2 receptor (metabotropic glutamate receptor 2) (Homo sapiens)
meas.value: 5.91

compound: FCn1c(CN2CCC(c3cc(Cl)ccc3OCCC3CC3)CC2)nc2ccccc21
target.of.assay: mGluR2 receptor (metabotropic glutamate receptor 2) (Homo sapiens)
meas.value: 6.25

###

target.of.assay: mGluR2 receptor (metabotropic glutamate receptor 2) (Homo sapiens, UniProt Q14416)
Construct: expressed in transfected cells
Sequence (Q14416 19-872, species assumed): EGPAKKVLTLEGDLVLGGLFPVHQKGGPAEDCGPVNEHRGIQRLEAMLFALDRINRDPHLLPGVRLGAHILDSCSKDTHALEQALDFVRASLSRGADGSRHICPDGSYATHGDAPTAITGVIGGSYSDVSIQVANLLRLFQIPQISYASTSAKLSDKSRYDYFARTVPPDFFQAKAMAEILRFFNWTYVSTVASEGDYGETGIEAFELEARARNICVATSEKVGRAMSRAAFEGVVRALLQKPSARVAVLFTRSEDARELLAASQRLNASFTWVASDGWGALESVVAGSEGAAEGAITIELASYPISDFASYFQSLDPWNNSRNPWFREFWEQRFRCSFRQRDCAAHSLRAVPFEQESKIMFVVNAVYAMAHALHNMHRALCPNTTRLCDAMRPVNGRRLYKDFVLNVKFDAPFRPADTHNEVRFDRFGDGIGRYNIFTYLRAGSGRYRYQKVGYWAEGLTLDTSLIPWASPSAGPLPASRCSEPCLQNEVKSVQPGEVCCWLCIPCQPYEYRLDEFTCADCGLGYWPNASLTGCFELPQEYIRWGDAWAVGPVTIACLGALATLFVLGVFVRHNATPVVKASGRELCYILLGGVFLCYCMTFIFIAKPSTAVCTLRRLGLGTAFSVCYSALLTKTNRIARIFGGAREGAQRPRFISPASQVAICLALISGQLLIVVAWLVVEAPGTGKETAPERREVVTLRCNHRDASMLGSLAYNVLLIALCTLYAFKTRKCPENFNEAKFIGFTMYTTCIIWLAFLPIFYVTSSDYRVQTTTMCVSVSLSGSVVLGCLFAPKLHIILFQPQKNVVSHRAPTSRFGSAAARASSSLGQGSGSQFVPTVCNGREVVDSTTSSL
assay.name: mGluR2 Potentiator Screen, FLIPR, EC10-EC20 glutamate challenge
Assay type: cell-based
test.parameters: read-out: EC50
Quick reference for EC50 among some compounds

compound: CCC(C)CN1CC2(CCN(Cc3nc4ccccc4n3C)CC2)c2ccccc21 (stereo not drawn) [compound 133]
result.operator: =
EC50 [nM]: 6160
//
compound: Cc1ccc2c(c1)C1(CCN(Cc3nc4ccccc4n3C)CC1)CN2CC1CCCO1 (stereo not drawn) [compound 124]
result.operator: =
EC50 [nM]: 4110
//
compound: Cn1c(CN2CCCC(c3ccccc3)CC2)nc2ccccc21 (stereo not drawn) [compound 305]
result.operator: =
EC50 [nM]: 235
//
compound: Cn1c(CN2CCC(c3ccccc3F)CC2)nc2c(C#N)cccc21 [compound 268]
result.operator: =
EC50 [nM]: 1710
//
compound: COCCn1c(CN2CCC(c3ccc(F)cc3)CC2)nc2ccccc21 [compound 367]
result.operator: =
EC50 [nM]: 905
//
compound: COc1ccc(C(F)(F)F)cc1C1CCN(Cc2nc3cc(F)c(F)cc3n2C)CC1 [compound 321]
result.operator: =
EC50 [nM]: 1510
//
compound: Cn1c(CN2CCC(c3cc(F)ccc3F)CC2)nc2ccccc21 [compound 311]
result.operator: =
EC50 [nM]: 16.1
//
compound: COc1cc(C(F)(F)F)ccc1C1CCN(Cc2nc3ccccc3n2C)CC1 [Entry 354]
result.operator: <
EC50 [nM]: 19.3
//
compound: Cn1c(CN2CCC3(CC2)CN(CC2CC2)c2ccc(F)cc23)nc2ccccc21 [compound 138]
result.operator: =
EC50 [nM]: 8590
//
compound: Cn1c(CN2CCC3(CC2)CN(C(=O)c2ccco2)c2ccccc23)nc2ccccc21 [compound 63]
result.operator: =
EC50 [nM]: 4510
//
compound: COc1cccc(C2CCN(Cc3nc4ccccc4n3C)CC2)c1 [compound 65]
result.operator: =
EC50 [nM]: 241
//
compound: COc1ccc(Cl)cc1C1CCN(Cc2nc3c(Br)cccc3n2C)CC1 [compound 234]
result.operator: =
EC50 [nM]: 1310
//
compound: CC(C)Oc1ccccc1C1CCN(Cc2nc3cc(F)ccc3n2C)CC1 [compound 371]
result.operator: =
EC50 [nM]: 692
//
compound: COC(=O)c1cccc([C@]2(C)CCN(Cc3nc4ccccc4n3C)C[C@@H]2C)c1 [compound 81]
result.operator: =
EC50 [nM]: 6080
//
compound: COCCn1c(CN2CCC(c3ccccc3C(F)(F)F)CC2)nc2ccccc21 [compound 250]
result.operator: =
EC50 [nM]: 545
//
compound: Cn1c(CN2CCC(c3cccc(C(F)(F)F)c3)CC2)nc2cc(Cl)ccc21 [compound 381]
result.operator: =
EC50 [nM]: 1590
//
compound: Cn1c(CN2CCC(c3cc(F)cc(F)c3)CC2)nc2cc(Cl)ccc21 [compound 382]
result.operator: =
EC50 [nM]: 7060
//
compound: COc1ccccc1C1CCN(Cc2nc3cc(F)c(F)cc3n2C)CC1C (stereo not drawn) [compound 293]
result.operator: =
EC50 [nM]: 850

###

target.of.assay: mGluR2 receptor (metabotropic glutamate receptor 2) (Homo sapiens, UniProt Q14416)
Construct: expressed in transfected cells
assay.name: mGluR2 Potentiator Screen, FLIPR, EC10-EC20 glutamate challenge
Type: cell-based
test.parameters: read-out: EC50
pEC50: −log10 of the molar value.
Quick reference for pEC50 among some compounds
assay.metric: pEC50

compound: Cc1nnsc1C(=O)N1CC2(CCN(Cc3nc4ccccc4n3C)CC2)c2cc(F)ccc21 [compound 18]
assay.metric: pEC50
result.operator: =
meas.value: 5.61
--
compound: Cc1ccc2c(c1)C1(CCN(Cc3nc4ccccc4n3C)CC1)CN2C(=O)c1snnc1C [compound 21]
assay.metric: pEC50
result.operator: =
meas.value: 5.94
--
compound: Cn1c(CN2CCC(c3ccc(C(F)(F)F)cc3)C(C)(C)C2)nc2ccccc21 (stereo not drawn) [compound 411]
assay.metric: pEC50
result.operator: =
meas.value: 6.20
--
compound: CCCCN1CC2(CCN(Cc3nc4ccccc4n3C)CC2)c2cc(F)ccc21 [compound 140]
assay.metric: pEC50
result.operator: =
meas.value: 5.67
--
compound: Cn1c(CN2CCC(O)(c3ccc(Br)cc3)CC2)nc2ccccc21 [compound 75]
assay.metric: pEC50
result.operator: <
meas.value: 5.13
--
compound: Cn1c(CN2CCC(c3ccccc3OC3Cc4ccccc4C3)CC2)nc2ccccc21 [compound 102]
assay.metric: pEC50
result.operator: =
meas.value: 5.82
--
compound: Cn1c(CN2CCC(c3cccc(F)c3)CC2)nc2ccccc21 [compound 430]
assay.metric: pEC50
result.operator: =
meas.value: 5.48
--
compound: Cn1c(CN2CCC(c3ccc(F)c(Cl)c3)CC2)nc2ccccc21 [compound 443]
assay.metric: pEC50
result.operator: =
meas.value: 7.24
--
compound: CC(C)CN1CC2(CCN(Cc3nc4ccccc4n3C)CC2)c2cc(Cl)ccc21 [compound 113]
assay.metric: pEC50
result.operator: =
meas.value: 5.36
--
compound: Cn1c(CN2CCC(c3cc(F)cc(F)c3)CC2)nc2ccccc21 [compound 415]
assay.metric: pEC50
result.operator: =
meas.value: 6.72
--
compound: COc1cc(C(F)(F)F)ccc1C1CCN(Cc2nc3c(F)cccc3n2C)CC1 [compound 399]
assay.metric: pEC50
result.operator: >
meas.value: 7.91
--
compound: COc1cccc(C2CCN(Cc3nc4cc(Cl)ccc4n3C)CC2)c1 [compound 385]
assay.metric: pEC50
result.operator: =
meas.value: 5.56
--
compound: Cn1c(CN2CCC3(CC2)CN(C(=O)c2cccc(C#N)c2)c2ccccc23)nc2ccccc21 [compound 55]
assay.metric: pEC50
result.operator: =
meas.value: 5.52
--
compound: CN1CCC[C@H]1COc1ccccc1C1CCN(Cc2nc3ccccc3n2C)CC1 [compound 98]
assay.metric: pEC50
result.operator: <
meas.value: 5.32
--
compound: Cc1ccc2c(c1)C1(CCN(Cc3nc4ccccc4n3C)CC1)CN2CC(C)C [compound 119]
assay.metric: pEC50
result.operator: =
meas.value: 5.54
--
compound: COc1ccccc1C1CCN(Cc2nc3cc(C(=O)O)ccc3n2C)CC1 [Entry 288]
assay.metric: pEC50
result.operator: =
meas.value: 5.77
--
compound: Cn1c(CN2CCC3(CC2)CN(C(=O)c2ccco2)c2ccc(Cl)cc23)nc2ccccc21 [compound 46]
assay.metric: pEC50
result.operator: <
meas.value: 5.31
--
compound: Cn1c(CN2CCC3(CC2)CN(C(=O)c2ccsc2)c2ccccc23)nc2ccccc21 [compound 49]
assay.metric: pEC50
result.operator: =
meas.value: 5.92

// provenance: patent US20080280933A1
